- PROTOCOL_SUMMARY: qHTS RealTime-Glo MT Cell Viability Assay in HEK293 cells - 0 hour (AID 1224880); note: nearly all actives have a fitted effect of over 45% in size
- SETUP_CONDITIONS: RealTime-Glo luminescence; series mostly up to 76.8 µM
Inconclusive results are not listed. Active and inactive are the calls of the source. Calls come from the whole dose curve; as a rule, active = well fitted cell-killing curve with a large enough effect in the repeat runs; inconclusive = weak or mixed curves, or effect the other way; inactive = flat fitted curve, though single readings scatter.
Outcome codes: active, inactive

CC(C)(C)NCC(O)COc1ccccc1OCC1CCCO1 (centres undefined) : inactive
Oc1c(Cl)cc(Cl)c(Cl)c1Cc1c(O)c(Cl)cc(Cl)c1Cl : inactive
CC(N)=O : inactive
O=C(O)Cn1cnnn1 : inactive
CC(C)CCOC(=O)c1ccc(N(C)C)cc1 : inactive
c1ccc2cc3c(ccc4ccccc43)cc2c1 : inactive
CN(C)c1ccc2nc3ccc(=[N+](C)C)cc-3sc2c1 : inactive
CCOc1ccccc1C(N)=O : inactive
O=Nc1ccc(Nc2ccccc2)cc1 : active
CCCCCCCCCCCCc1ccccc1O : inactive
Nc1nc(=S)c2[nH]cnc2[nH]1 : inactive
O=C1Nc2ccccc2C1(c1ccc(O)cc1)c1ccc(O)cc1 : inactive
OCCOCCN1CCN(C(c2ccccc2)c2ccc(Cl)cc2)CC1 (centres undefined) : inactive
CCC[C@H](N[C@@H](C)C(=O)N1[C@H](C(=O)O)C[C@@H]2CCCC[C@@H]21)C(=O)OCC : inactive

---

- TARGET_OR_SYSTEM: Estrogen receptor beta (Homo sapiens) (UniProt Q92731)
- Sequence (Q92731 whole entry, looked up): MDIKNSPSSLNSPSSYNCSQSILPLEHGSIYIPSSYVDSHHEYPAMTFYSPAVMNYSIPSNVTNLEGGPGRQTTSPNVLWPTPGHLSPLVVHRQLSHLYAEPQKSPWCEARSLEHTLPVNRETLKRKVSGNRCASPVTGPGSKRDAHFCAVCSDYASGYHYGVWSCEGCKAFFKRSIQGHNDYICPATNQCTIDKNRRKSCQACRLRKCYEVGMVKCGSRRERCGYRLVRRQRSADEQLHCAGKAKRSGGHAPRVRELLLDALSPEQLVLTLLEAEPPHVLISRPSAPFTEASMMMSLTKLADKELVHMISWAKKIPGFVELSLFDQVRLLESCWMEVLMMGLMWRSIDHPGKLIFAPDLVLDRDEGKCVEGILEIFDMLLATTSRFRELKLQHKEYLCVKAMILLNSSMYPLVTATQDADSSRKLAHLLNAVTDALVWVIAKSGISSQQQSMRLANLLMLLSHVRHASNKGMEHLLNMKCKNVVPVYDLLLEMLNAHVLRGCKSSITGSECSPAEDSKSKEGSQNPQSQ
- PROTOCOL_SUMMARY: qHTS assay to identify small molecule antagonists of the estrogen receptor beta (ER-beta) signaling pathway (AID 1259378)
- SETUP_CONDITIONS: ER-beta-UAS-bla HEK293T, beta-lactamase FRET ratio, 16 h; series mostly up to 92.4 µM
Records with an inconclusive call do not appear. Active and inactive are the calls of the source. Calls follow the shape of the dose curve; as a rule, active = well fitted inhibition curve with a large enough effect in the signal ratio in the repeat runs (not every such curve was filed as active); inconclusive = weak or mixed curves, or effect the other way; inactive = no such curve, though single readings can be large or run the other way; the % refers to the signal ratio. Starred links: 1 amine or outer side, 2 acyl side, 3 side chain; linkers in the order of their positions; H or OH if unused. Positions of bridges follow the written chain, without caps; N, C: chain ends. Non-standard residues stand in square brackets, D forms with d. Residues, ends and D or L forms follow the SMILES beside them. Chains are numbered I, II in the order given. Actinocin(9to1) = Cc1c2oc3c(C)ccc(C(=O)[*:1])c3nc-2c(C(=O)[*:2])c(N)c1=O; NMeV = CN[C@H](C(=O)O)C(C)C; Sar = CNCC(=O)O
Classes used: active, inactive

O=C(OCc1ccccc1)c1ccc(O)cc1 : active
CC(=O)OCC1=C(C(=O)O)N2C(=O)[C@@H](NC(=O)Cc3cccs3)[C@H]2SC1 : inactive
COc1ccc(Cc2cnc(N)nc2N)cc1OC : inactive
CO[Si](OC)(OC)c1ccccc1 : inactive
C=C(C)C1CC=C(C)C(OC(C)=O)C1 (configuration not stated) : inactive
CCn1c2ccccc2c2cc(N)ccc21 : inactive
C=CC(=O)OCCCCCCCC : inactive
CC(C)(C)NCC(O)COc1ccccc1OCC1CCCO1 (configuration not stated) : inactive
CCOc1ccccc1C(N)=O : inactive
Cc1ccnc2c1NC(=O)c1cccnc1N2C1CC1 : inactive
Nc1cc(Cl)c(-c2cc(Cl)c(N)cc2Cl)cc1Cl : active
CCOC(=O)C(C)C(C)=O (configuration not stated) : inactive
CC(C)(C)c1ccccc1 : inactive
CC1COC(=O)O1 (configuration not stated) : inactive
CC(C)(O)CCC(C)(C)O : inactive
C=CS(=O)(=O)O : inactive
Cc1c2oc3c(C)ccc(C(=O)N[C@@H]4C(=O)N[C@H](C(C)C)C(=O)N5CCC[C@H]5C(=O)N(C)CC(=O)N(C)[C@@H](C(C)C)C(=O)O[C@@H]4C)c3nc-2c(C(=O)N[C@@H]2C(=O)N[C@H](C(C)C)C(=O)N3CCC[C@H]3C(=O)N(C)CC(=O)N(C)[C@@H](C(C)C)C(=O)O[C@@H]2C)c(N)c1=O (I: T[dV]P[Sar][NMeV] / II: T[dV]P[Sar][NMeV]; ester I:1-I:C, II:1-II:C; linker I:N-II:N via Actinocin(9to1)) : active
COC(=O)/C=C/c1ccccc1 : inactive
Nc1nc(=S)c2[nH]cnc2[nH]1 : inactive
Cc1cccc([N+](=O)[O-])c1C(=O)O : inactive
CCN(CC)CCOc1ccc(/C(=C(\Cl)c2ccccc2)c2ccccc2)cc1 : active
Cc1ccc(S(=O)(=O)Oc2ccc(N=Nc3ccc(-c4ccc(N=Nc5c(O)ccc6cc(S(=O)(=O)O)cc(S(=O)(=O)O)c56)c(C)c4)cc3C)cc2)cc1 : inactive

---

- PROTOCOL_SUMMARY: qHTS assay to identify small molecule agonists of the constitutive androstane receptor (CAR) signaling pathway - cell viability counter screen (AID 1224836); note: nearly all actives have a fitted effect of over 45% in size
- SETUP_CONDITIONS: HepG2-CYP2B6-hCAR viability, CellTiter-Fluor, 23 h, PK11195 added to every well; series mostly up to 92.4 µM
Results filed as inconclusive are left out. Active and inactive are the calls of the source. Calls come from the whole dose curve; as a rule, active = well fitted cell-killing curve with a large enough effect in the repeat runs; inconclusive = weak or mixed curves, or effect the other way; inactive = flat fitted curve, though single readings scatter.
Labels: true (1) (active), false (0) (inactive)

C=CS(=O)(=O)O : false (0)
O=C1Nc2ccccc2C1(c1ccc(O)cc1)c1ccc(O)cc1 : false (0)
Oc1c(Cl)cc(Cl)c(Cl)c1Cc1c(O)c(Cl)cc(Cl)c1Cl : true (1)
CC(C)(C)NCC(O)c1cc(O)cc(O)c1 (stereo not given) : false (0)
CC(=O)CC(=O)Nc1ccc2[nH]c(=O)[nH]c2c1 : false (0)

---

- PROTOCOL_SUMMARY: qHTS assay to identify small molecule antagonists of the peroxisome proliferator-activated receptor delta (PPARd) signaling pathway - cell viability counter screen (AID 743213); note: % is set by controls: 0 for no effect and ±100 for the full control effect; nearly all actives have a fitted effect of over 50% in size
- SETUP_CONDITIONS: PPARd-bla HEK293H viability, CellTiter-Glo luminescence, 17 h; series mostly up to 62 µM
Results filed as inconclusive are left out. Calls of active or inactive are those of the source. Calls follow the shape of the dose curve; as a rule, active = well fitted cell-killing curve with a large enough effect in the repeat runs; inconclusive = weak or mixed curves; inactive = no such curve, though single readings can be large or run the other way.
REPORTED_ENDPOINT: outcome

CCc1cc(C(C)(C)C)c(O)c(C(C)(C)C)c1 : inactive
CC(=O)OCC1=C(C(=O)O)N2C(=O)[C@@H](NC(=O)Cc3cccs3)[C@H]2SC1 : inactive
c1cc(C(c2ccc(OCC3CO3)cc2)C(c2ccc(OCC3CO3)cc2)c2ccc(OCC3CO3)cc2)ccc1OCC1CO1 (stereo unspecified) : inactive
Cc1cc(C2(c3cc(C)c(O)cc3C)OS(=O)(=O)c3ccccc32)c(C)cc1O : inactive
CC[C@@H](N)CO : inactive
CC(=O)CC(=O)Nc1ccc2[nH]c(=O)[nH]c2c1 : inactive

---

- PROTOCOL_SUMMARY: qHTS assay for small molecule disruptors of the mitochondrial membrane potential (AID 720635)
- SETUP_CONDITIONS: HepG2 mitochondrial membrane potential, Mito-MPS dye ratio; series mostly up to 83.2 µM
Records with an inconclusive call do not appear. Active and inactive are the calls of the source. Calls follow the shape of the dose curve; as a rule, active = well fitted inhibition curve with a large enough effect in the signal ratio in the repeat runs; inconclusive = weak or mixed curves, or effect the other way; inactive = flat fitted curve, though single readings scatter; the % refers to the signal ratio.
Labels: 1.0 for active, 0.0 for inactive

CCC(=O)/C=C/C1C(C)=CCCC1(C)C (stereo not drawn) : 1.0
C1COC(NC(C2CC2)C2CC2)=N1 : 0.0
CN1C(=O)c2ccc([N+](=O)[O-])cc2C1=O : 1.0
